GLUTag cells: reported pEC50 for various substances.
pEC50: −log10 of the molar value. Bridges are numbered along the chain shown (N, C = ends). Where no end group is shown, it is not given here.

Recorded results for 5 substances are shown here.
[[record]]
substance = "FTYKDKECVYYCHLDIIWINTPEQTVPYGLSNYRESLRGKR-NH2 (cysteines drawn unpaired) [EDN3 100-140]"
assayed_target = "GLUTag cells"
value = "< 5.00"

[[record]]
substance = "STSFTYKDKESVYYSHLDIIWINTPEQTVPYGLSNYRESLRGKR-NH2 [EDN3 97-140 C->S mutant]"
assayed_target = "GLUTag cells"
value = "< 5.00"

[[record]]
substance = "ATCFTYKDKECVYYAHLDIIWINTPEQTVPYGLSNYRESLRGKR-NH2 (disulfide 3-11) [EDN3 97-140 C97A, C111A]"
assayed_target = "GLUTag cells"
value = 5.57

[[record]]
substance = "YYAHLDIIAINTPEQTVPYGLSNYRESLRGKR-NH2 [EDN3 109-140 C111A W117A]"
assayed_target = "GLUTag cells"
value = "< 5.00"

[[record]]
substance = "CTCFTYKDKECVYYCHLDIIHINTPEQTVPYGLSNYRESLRGKR-NH2 (disulfide 1-15, 3-11 (inferred)) [EDN3 97-140 W117H]"
assayed_target = "GLUTag cells"
value = "< 6.00"


Q) Entry FTYKDKESVYY-NH2 [EDN3 100-110] : reported pEC50 = ?
A) < 5.00

Q) Ok, now YYSHLDIIWINTPEQTVPYGLSNYRESLRGKR-NH2 [EDN3 109-140 C111S]
A) < 5.00

Q) Ok, now CTCFTYKDKECVYYCHLDIIWINTPEQTVPYGLSNYRESLR-NH2 (disulfide 1-15, 3-11 (inferred)) [EDN3 97-137]
A) 5.76

###

pEC50: −log10 of the molar value. Bridges are numbered along the chain shown (N, C = ends). Where no end group is shown, it is not given here.
GLUTag cells: reported pEC50 for various substances.
Quantity Name: pEC50

[[record]]
substance = "CTCFTYKDKECVYYCHLDIIWINTPEQTVPYGLSNYRESLRGKR-OH (disulfide 1-15, 3-11 (inferred)) [EDN3 97-140 free acid]"
value = 5.70


[P] CTAFTYKDKEAVYYCHLDIIWINTPEQTVPYGLSNYRESLRGKR-NH2 (disulfide 1-15) [EDN3 97-140 C99A, C107A]
[Q] CTCFTYKDKECVYYCHLDIIFINTPEQTVPYGLSNYRESLRGKR-NH2 (disulfide 1-15, 3-11 (inferred)) [EDN3 97-140 W117F]
Q) Could you please tell me which of these two has the higher pEC50: P or Q ? Answer with the label corresponding to your selection.
A) Q
